Cited source: PubChem BioAssay (NCI)

# System: MCF7 breast
# method: NCI-60 one-dose screen, 48 h (100 = growth as untreated, 0 = no growth, -100 = all killed)
# assay_context: 10 µM unless noted
The panel holds about 83,000 compounds, 20% with a hit somewhere; the sample as a whole holds those more often.
Label Yes when growth < 50%; otherwise No.

A selection of reference data follows.
C(=C\c1nc2ccccc2[nH]1)/c1nc2ccccc2[nH]1
No
CS(=O)(=O)c1ccc(-c2[nH]c3ccc(F)cc3c2/C=N/NC(N)=S)cc1
Yes
Nc1ccn(C2OC(F)(CO)C(O)C2F)c(=O)n1 (stereo unspecified)
Yes
CCCN1CCN(c2ccc3nc(-c4ccc5nc(-c6ccc(OCC)c(OCC)c6)[nH]c5c4)[nH]c3c2)CC1
Yes
CCCCCCN(CCCCCC)CC(O)c1cccc2ccc(Cl)cc12 (stereo unspecified)
No
Cc1ccc(S(=O)(=O)NN/C(N)=N\S(=O)(=O)c2cc(C)c(Cl)cc2SCc2ccccc2)cc1
No
C=C(C)[C@@H]1CC[C@]2(C(=O)NCC(=O)O)CC[C@]3(C)[C@H](CC[C@@H]4[C@@]5(C)Cc6c([nH]c7ccccc67)C(C)(C)[C@@H]5CC[C@]43C)[C@@H]12
No
CN1CCN(C(=O)[C@@]2(C)CC[C@]3(C)CC[C@]4(C)C(=CC[C@@H]5[C@@]6(C)C/C(=C/c7ccncc7)C(=O)C(C)(C)[C@@H]6CC[C@]54C)[C@@H]3C2)CC1
Yes

Incoming: Does the reported growth of COc1ccc(-c2cc(-c3cc(OC)ccc3O)[nH]c(=O)c2C#N)cc1 stay below 50%?
Outgoing: Yes

Incoming: Please let me know if CCCCN1CCN(c2ccc3nc(-c4ccc5nc(-c6cc(OC)c(OC)c(OC)c6)[nH]c5c4)[nH]c3c2)CC1 shows growth below 50%.
Outgoing: Yes

Incoming: In the record for CN(C)c1ccc(/C=C2\C=C(c3ccccc3)N(CCc3ccccc3)C2=O)cc1 , is growth less than 50%?
Outgoing: No

Incoming: Given CCOC(=O)C(O)C(O)(c1ccccc1)c1ccccc1 (stereo unspecified) , is recorded growth strictly lower than 50%?
Outgoing: No

Incoming: Consider CNCCNc1nc2ccccc2c2c(=O)c3cc(F)ccc3oc12 . Does its growth lie strictly below 50%?
Outgoing: Yes

Incoming: hey, is growth for COc1ccc(-c2nc3sccn3c2/C=C/C(=O)c2c[nH]c3ccccc23)cc1 lower than 50% or not?
Outgoing: No

Incoming: Answer whether the compound CCOC(=O)c1cnn2c(-c3ccc(Cl)cc3)nc(NCc3ccccc3)nc12 has growth strictly less than 50%
Outgoing: Yes

Incoming: Take the compound CCCCCCCCCCCCCCCCCC1=NCCN1C(=O)OCCO and say whether its growth is less than 50%.
Outgoing: Yes
